Read-out: DNA damage-inducible transcript 3 (DDIT3), DDIT3 (gene 1649)
Assay: LTEA_HepaRG_DDIT3: Life Technologies and Expression Analysis (LTEA) Assay for DNA damage-inducible transcript 3 (DDIT3) using HepaRG (AID 2283488)
Conditions: mRNA level, 48 h; actives raise or lower the signal
Activity calls are given as the source filed them. The calls were made as follows: active = hit-call score of the fitted dose curve at least 0.9, where 1 is the maximum; inactive = score below 0.9.
Pick one and only one: 1 = active, 0 = inactive

COMPOUND: COP(=O)(OC)SCn1c(=O)oc2cc(Cl)cnc21
LABEL: 0
--
COMPOUND: Nc1nc(N)nc(NC2CC2)n1
LABEL: 0
--
COMPOUND: CCOP(=S)(Oc1cnc(C(C)(C)C)nc1)OC(C)C (stereo not drawn)
LABEL: 0
--
COMPOUND: CCCSP(=O)(OCC)Oc1ccc(Br)cc1Cl (stereo not drawn)
LABEL: 0
--
COMPOUND: CCC(=O)Nc1ccc(Cl)c(Cl)c1
LABEL: 0

For S=C1NCCN1 , what call appears in the results of this test? 0

Item: CN(C)[C@@H]1C(=O)C(C(N)=O)=C(O)[C@@]2(O)C(=O)C3=C(O)c4c(O)cccc4[C@@](C)(O)[C@H]3[C@H](O)[C@@H]12 0

Item: CC(=NC#N)N(C)Cc1ccc(Cl)nc1 0

Item: CC1=NNC(=O)N(/N=C/c2cccnc2)C1 0

Item: CC1(C(=O)Nc2ccc(O)c(Cl)c2Cl)CCCCC1 0
